Quick reference: Pre-emergence action against ALOMY of the listed items.
System: Alopecurus myosuroides (ALOMY)
experiment.description: Pre-emergence herbicidal action against ALOMY
Format: in vivo
experimental.context: 320 g/ha; scored visually after about 3 weeks; 100% = plants have died
recorded.metric: Pre-emergence action against ALOMY (%)

O=C(O)COc1nn(-c2ccccn2)c(-c2ccnc(F)c2)c1Br; 100
O=C(O)COc1nn(-c2ncccc2F)c(-c2ccc(F)nc2)c1Br [Example I-08]; 100
COC(=O)CSc1nn(-c2ccccn2)c(-c2cncc(F)c2)c1Br; 100
COC(=O)[C@H](C)NC(=O)COc1nn(-c2ccccn2)c(-c2ccc(F)nc2)c1Cl; 100
O=C(O)COc1nn(-c2ccccn2)c(-c2cncc(F)c2)c1Br; 100
CCOC(=O)C(C)Oc1nn(-c2ccccn2)c(-c2ccc(F)nc2)c1I (stereo not drawn); 100
COC(=O)C(C)COC(=O)COc1nn(-c2ccccn2)c(-c2cncc(F)c2)c1Cl (stereo not drawn); 90
C=C(COC(=O)COc1nn(-c2ccccn2)c(-c2ccc(F)nc2)c1Br)C(=O)OC; 100
CCOC(=O)[C@@H](C)Oc1nn(-c2ccccn2)c(-c2ccc(F)nc2)c1Br; 100
O=C(O)COc1nn(-c2nc(F)ccc2F)c(-c2cncc(F)c2)c1C1CC1; 100
CS(=O)(=O)CCOC(=O)COc1nn(-c2ccccn2)c(-c2ccc(F)nc2)c1Br; 100
COC(=O)[C@@H](C)COC(=O)COc1nn(-c2ccccn2)c(-c2cncc(F)c2)c1Br; 100
C[C@@H](Oc1nn(-c2ncccc2F)c(-c2ccc(F)nc2)c1C1CC1)C(=O)O; 100
C[C@@H](Oc1nn(-c2nc(F)ccc2F)c(-c2ccc(F)nc2)c1C1CC1)C(=O)O; 100
COC(=O)COc1nn(-c2ncccc2C(F)(F)F)c(-c2cncc(F)c2)c1I; 90
COC(=O)C=CC(C)NC(=O)COc1nn(-c2ccccn2)c(-c2ccc(F)nc2)c1Br (stereo not drawn); 80
CCOC(=O)COc1nn(-c2ccccn2)c(-c2ccc(F)nc2)c1Br; 90
CC(NC(=O)[C@@H](C)Oc1nn(-c2ccccn2)c(-c2ccc(F)nc2)c1Cl)C(=O)O (stereo partly drawn); 100
CCOC(=O)COc1nn(-c2nc(F)ccc2F)c(-c2cncc(F)c2)c1C1CC1; 100
COC(=O)COc1nn(-c2ncccc2F)c(-c2cncc(F)c2)c1C1CC1; 100
N#CCOC(=O)COc1nn(-c2ncccc2F)c(-c2ccc(F)nc2)c1Br; 100
COC(=O)[C@@H](C)Oc1nn(-c2nc(F)ccc2F)c(-c2cncc(F)c2)c1Br; 90
CCOC(=O)COc1nn(-c2ccccn2)c(-c2ccc(Cl)nc2)c1Cl; 80
COC(=O)CCOC(=O)COc1nn(-c2ccccn2)c(-c2ccc(F)nc2)c1F; 90
COC(=O)CNC(=O)COc1nn(-c2ccccn2)c(-c2ccc(F)nc2)c1C1CC1; 90
COC(=O)C(C)NC(=O)[C@@H](C)Oc1nn(-c2ccccn2)c(-c2cncc(F)c2)c1Cl (stereo partly drawn); 90
COC(=O)CNC(=O)[C@@H](C)Oc1nn(-c2ccccn2)c(-c2cncc(F)c2)c1Cl; 90
CCOC(=O)CSc1nn(-c2ccccn2)c(-c2cncc(F)c2)c1I; 80
COC(=O)COc1nn(-c2ncccc2F)c(-c2ccc(F)nc2)c1Br; 100
CCOC(=O)COc1nn(-c2ncccc2F)c(-c2ccc(F)nc2)c1Br; 100
CCOC(=O)[C@@H](C)Oc1nn(-c2ncccc2F)c(-c2ccc(F)nc2)c1Cl; 100
COC(=O)[C@@H](C)Oc1nn(-c2ncccc2F)c(-c2ccc(F)nc2)c1I; 100
O=C(COc1nn(-c2ccccn2)c(-c2ccc(F)nc2)c1Br)OCC1CCCO1 (stereo not drawn); 100
